# test_system: Recombinant human mPGES-1 (Homo sapiens, UniProt O14684)
# Construct: made in house; host or cells: CHO cells (crude microsomal fractions)
# measurement_protocol: In-vitro screening of mPGES-1 inhibitors (inhibition of PGE2 formation from PGH2, HTRF detection)
# Format: biochemical
# test_conditions: 1 μM test compound; mPGES-1 enzyme, crude microsomal fractions; read-out: Percentage inhibition at 1 μM
measured_quantity: inhibition at 1 µM (%)

These solved cases illustrate the format of a correct answer.
                                   molecule  value
0  CC(C)(C)C(=O)NCc1ccc(Cl)c(-c2nn(-c3ccc(Cl)cc3)c(=O)[nH]2)c1F [Example-98]   97.5
1  CC(C)(C)n1nc(-c2cc(CNC(=O)C(F)(F)F)ccc2Cl)[nH]c1=O [Example-120]   11.4
2  O=c1[nH]c(-c2c(F)cccc2Cl)nn1-c1ccc(C#Cc2ccccc2C(F)(F)F)cc1 [Example-3]   88.9
3  CC(C)(C)C(=O)NCc1ccc(Cl)c(-c2nn(-c3cccc(C(F)(F)F)c3)c(=O)[nH]2)c1 [Example-142]   97.2

I = O=C(NCc1ccc(F)cc1C(F)(F)F)c1ccc(-n2nc(-c3c(F)cccc3Cl)[nH]c2=O)cc1 [Example-28]
II = COc1cc(-n2nc(-c3c(Cl)cccc3Cl)[nH]c2=O)ccc1C(=O)Nc1cc(CNC(=O)C2CC2)ccc1Cl [Example-64]
Input line: For I and II , which recorded inhibition at 1 µM is lower? Write down the label attached to your selection.
Output line: II

A = CC(C)(C)C(=O)NCc1ccc(Cl)c(-n2nc(-c3ccc(C#CC4CC4)cc3)[nH]c2=O)c1 [Example-141]
B = O=c1[nH]c(-c2c(F)cccc2Cl)nn1-c1ccc(C#Cc2ccc(N3CCOCC3)nc2)cc1 [Example-16]
Input line: For A and B , which recorded inhibition at 1 µM is lower? Write down the label attached to your selection.
Output line: B

a = CC(C)S(=O)(=O)NCc1cnc(C(F)F)c(-c2nn(-c3ccc(C(F)(F)F)cc3)c(=O)[nH]2)c1 [Example-188]
b = COc1cc(-c2nn(-c3c(Cl)cccc3Cl)c(=O)[nH]2)ccc1C(=O)Nc1ccc(C)cc1Cl [Example-179]
c = CC(C)(C)C(=O)NCc1ccc(Cl)c(-c2nn(-c3ccc(F)cc3F)c(=O)[nH]2)c1F [Example-85]
d = O=C(NCC1CC1)c1ccc(-n2nc(-c3c(F)cccc3Cl)[nH]c2=O)cc1 [Example-17]
Input line: Sort entries by inhibition at 1 µM from minimum to maximum value. Sort the labels as requested; that list is your answer.
Output line: d, c, b, a

A = CC(C)S(=O)(=O)NCc1ccc(Cl)c(-c2nn(-c3ccc(C(F)(F)F)cc3)c(=O)[nH]2)c1 [Example-162]
B = O=c1[nH]c(-c2c(F)cccc2Cl)nn1-c1ccc(C#Cc2cnc(N3CCOCC3)nc2)cc1 [Example-15]
Input line: Which is greater in inhibition at 1 µM, the first item A or the second item B ? Write down the label attached to your selection.
Output line: A
(A: 99.3%, B: 64.2%)

I = Cc1ccc(CNC(=O)C(C)(C)C)c(C)c1-c1nn(-c2ccc(C(F)(F)F)cc2)c(=O)[nH]1 [Example-108]
II = Cc1ccc(CNC(=O)[C@H]2CCCO2)c(C)c1-c1nn(-c2ccc(C(F)(F)F)cc2)c(=O)[nH]1 [Example-107]
Input line: For I and II , which recorded inhibition at 1 µM is lower? Write down the label attached to your selection.
Output line: II

* * *

# test_system: Recombinant human mPGES-1 (Homo sapiens, UniProt O14684)
# Sequence (O14684 1-152): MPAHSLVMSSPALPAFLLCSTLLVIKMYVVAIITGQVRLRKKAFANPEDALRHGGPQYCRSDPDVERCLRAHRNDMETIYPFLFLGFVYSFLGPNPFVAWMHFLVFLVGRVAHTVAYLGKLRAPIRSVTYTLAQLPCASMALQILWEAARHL
# measurement_protocol: In-vitro screening of mPGES-1 inhibitors (inhibition of PGE2 formation from PGH2, HTRF detection)
# test_conditions: mPGES-1 enzyme; class symbols
A collection of compounds and their measured IC50

These solved cases illustrate the format of a correct answer.
>>> df
                                smiles_text                               test_system     value
0  Cc1ccc(CNC(=O)C(F)(F)F)c(C)c1-c1nn(-c2ccc(C(F)(F)F)cc2)c(=O)[nH]1  Recombinant human mPGES-1 (Homo sapiens, UniProt O14684)  > 100 nM
1  Cc1cc(C)n(Cc2ccc(-c3nn(-c4cc(CNC(=O)C(C)(C)C)ccc4Cl)c(=O)[nH]3)cc2)n1  Recombinant human mPGES-1 (Homo sapiens, UniProt O14684)  > 100 nM
2  CC(C)(C)C(=O)NCc1ccc(Cl)c(-c2nn(-c3ccc(F)c(Cl)c3)c(=O)[nH]2)c1  Recombinant human mPGES-1 (Homo sapiens, UniProt O14684)   < 50 nM
3  CC(C)(C)C(=O)NCc1ccc(Cl)c(-c2nn(-c3cc(F)cc(C(F)(F)F)c3)c(=O)[nH]2)c1  Recombinant human mPGES-1 (Homo sapiens, UniProt O14684)   < 50 nM
4  O=c1[nH]c(-c2c(F)cccc2Cl)nn1-c1ccc(-c2nc(-c3ccc(Cl)cc3)no2)cc1  Recombinant human mPGES-1 (Homo sapiens, UniProt O14684)   < 50 nM

// recorded IC50 for CC(C)(C)C(=O)NCc1cc(-n2nc(-c3ccc(C#CC4CC4)cc3)[nH]c2=O)c(Cl)cc1F : < 50 nM

// recorded IC50 for CC(C)(C)C(=O)NCc1ccc(Cl)c(-c2nn(-c3ccc(C(F)(F)F)cc3)c(=O)[nH]2)c1 : < 50 nM

// recorded IC50 for COc1cc(-n2nc(-c3c(Cl)cccc3Cl)[nH]c2=O)ccc1C(=O)Nc1ccc(F)c(C(F)(F)F)c1 : < 50 nM

// recorded IC50 for O=C(NCc1ccc(Cl)c(-n2nc(-c3ccc(C#Cc4ccc(Cl)cc4F)cc3F)[nH]c2=O)c1)C1CC1 : < 50 nM

// recorded IC50 for O=C(NCc1cc(-c2nn(-c3ccc(C(F)(F)F)cc3)c(=O)[nH]2)c(Cl)cc1F)C(F)(F)F : < 50 nM

// recorded IC50 for Cc1cc(-n2nc(-c3cc(CNC(=O)C(C)C)ccc3Cl)[nH]c2=O)ccc1Cl : < 50 nM

// recorded IC50 for COc1cc(-n2nc(-c3c(C)cccc3Cl)[nH]c2=O)ccc1-c1nc(-c2ccc(Cl)cc2)no1 : < 50 nM

// recorded IC50 for COc1cc(-n2nc(-c3c(Cl)cccc3Cl)[nH]c2=O)ccc1C(=O)Nc1cc(C(F)(F)F)ccc1F : < 50 nM

* * *

# test_system: Recombinant human mPGES-1 (Homo sapiens)
# Construct: made in house; host or cells: CHO cells (crude microsomal fractions)
# measurement_protocol: In-vitro screening of mPGES-1 inhibitors (inhibition of PGE2 formation from PGH2, HTRF detection)
# Type: biochemical
# test_conditions: 1 μM test compound; mPGES-1 enzyme, crude microsomal fractions; read-out: Percentage inhibition at 1 μM
measured_quantity: inhibition at 1 µM (%)

In [3]: df
Out[3]:
                                   compound  value
0  COc1cc(OC)cc(-c2noc(-c3ccc(-n4nc(-c5c(F)cccc5Cl)[nH]c4=O)cc3OC)n2)c1 [Example-41]   58.8
1  O=C(NCc1ccccc1C(F)(F)F)c1ccc(-n2nc(-c3c(F)cccc3Cl)[nH]c2=O)cc1 [Example-18]   56.2
2  COc1cc(-n2nc(-c3c(F)cccc3Cl)[nH]c2=O)ccc1-c1nc2cc(C)c(C)cc2n1C [Example-58]   95.2
3  COc1cc(-n2nc(-c3c(F)cccc3Cl)[nH]c2=O)ccc1-c1nc(-c2cc(F)cc(C(F)(F)F)c2)no1 [Example-47]   89.5
4  COc1cc(-n2nc(-c3c(F)cccc3Cl)[nH]c2=O)ccc1C(=O)NC1(c2ccccc2C(F)(F)F)CC1 [Example-26]   80.6
5  O=C(Nc1cccc(C(F)(F)F)c1)c1ccc(-n2nc(-c3c(F)cccc3Cl)[nH]c2=O)cc1 [Example-31]   96.9
6  COc1cc(-n2nc(-c3c(F)cccc3Cl)[nH]c2=O)ccc1-c1nc(-c2ccc(Cl)cc2)no1 [Example-40]     89
7  CC(C)C(=O)NCc1ccc(Cl)c(-c2nn(-c3ccc(C(F)(F)F)c(F)c3)c(=O)[nH]2)c1 [Example-161]     98

I = CC(C)c1nnc(-c2ccc(-c3nn(-c4cc(CNC(=O)C(C)(C)C)ccc4Cl)c(=O)[nH]3)cc2)o1 [Example-153]
II = COc1ccc(-n2nc(-c3c(F)cccc3Cl)[nH]c2=O)cc1C(=O)NCc1ccccc1C(F)(F)F [Example-20]
III = Cc1ccc(Cl)cc1NC(=O)c1ccc(-n2nc(-c3c(F)cccc3Cl)[nH]c2=O)cc1 [Example-37]
Input line: Sort entries by inhibition at 1 µM from minimum to maximum value. Sort the labels as requested; that list is your answer.
Output line: II, III, I
